Target: HvUGT14077 (Hordeum vulgare)
Sequence (D3WYW3 1-490): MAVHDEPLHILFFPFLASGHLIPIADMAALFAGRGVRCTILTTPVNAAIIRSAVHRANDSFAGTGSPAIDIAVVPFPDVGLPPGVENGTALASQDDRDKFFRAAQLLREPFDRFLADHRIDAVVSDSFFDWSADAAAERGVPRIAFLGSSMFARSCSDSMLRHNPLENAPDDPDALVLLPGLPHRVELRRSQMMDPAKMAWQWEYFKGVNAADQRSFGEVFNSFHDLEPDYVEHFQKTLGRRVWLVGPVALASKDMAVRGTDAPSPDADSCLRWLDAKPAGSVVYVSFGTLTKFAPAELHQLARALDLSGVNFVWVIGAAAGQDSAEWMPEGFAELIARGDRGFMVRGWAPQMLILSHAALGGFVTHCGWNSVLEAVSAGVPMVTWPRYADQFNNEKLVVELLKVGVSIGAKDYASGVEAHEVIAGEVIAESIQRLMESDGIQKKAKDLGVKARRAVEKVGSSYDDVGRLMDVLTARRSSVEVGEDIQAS
Assay: LC-MS/MS of glucoside formation
Assay type: biochemical
Set-up: gene UGT; nHis6-MalE-TEV-HvUGT14077 fusion (tags kept), E. coli BL21 (DE3), IMAC, predicted 97 kDa incl. tags
observation type: IC50 (µM)
Numbers only, in µM.

stdin: # value lookup — system HvUGT14077 (Hordeum vulgare), readout IC50, item O=c1ccn([C@@H]2O[C@H](COP(=O)(O)OP(=O)(O)O)[C@@H](O)[C@H]2O)c(=O)[nH]1
stdout: 340
